# pIC50 values compiled below
target: A*6801 (Homo sapiens, UniProt P04439, A269V/D185E/E176V/E277Q/E87N/F33Y/G231S/I121M/I166T/I218V/L180W/L300P/L318F/N151K/P208A/P217A/Q86R/R169H/T345S); experiment: biochemical; type: binding
No end group written: not given here.
Conceptually, pIC50 converts a concentration in mol/L into minus its log10.

Exam item: Fill blank: measured pIC50 of the sequence ILLLLIRFK [Peptide 88.0386] is ____.
Marked response: 5.60

Exam item: Fill blank: measured pIC50 of the sequence KTTVLFKFK [Peptide 88.0369] is ____.
Marked response: 6.06

Exam item: Fill blank: measured pIC50 of the sequence AVNKMFCQLAK [Peptide 1556.46] is ____.
Marked response: 5.88

---

target: A31 (A*3101) (Homo sapiens, UniProt P04439, A270S/D185E/E176V/E277Q/F33T/G231S/G80R/H175R/I121M/I218V/I322F/K168Q/L300P/L318F/M331R/P217A/Q94H/R138Q/T323A/T345S/T97I/V358M); assay: biochemical; format: binding
pIC50: −log10 of the molar value. No end group written: not given here.
Decide by pIC50: equal to or exceeding 6 means TRUE, less means FALSE.

Completed entries (count: 5):
GTGISYGRK [Peptide 66.0062] :: FALSE
LSALKLFLK [Peptide 1587.39] :: TRUE
VSIEWRKRR [Peptide 9017.0090] :: TRUE
RFLSKISEYR [Peptide 1571.13] :: TRUE
VVFGILIKRK [Peptide 9012.0246] :: FALSE

// switching to the query sequence
Exam item: hey, is pIC50 for this one >= 6? KSFLKGTPK [Peptide 88.0344]
Marked response: TRUE

---

biological target: DRB1*1101 (Homo sapiens, UniProt P01903+P01911, A100R/A169T/A87E/I96F/K41T/L162R/M171V/P40S/Q125H/Q178H/Q39Y/Q99D/R42S/S66Y/T262R/V115G/W38E); assay: biochemical; conditions: Binding affinity DRB1 *1101
Sequence (P01903 26-254 limits assumed, other chains not shown): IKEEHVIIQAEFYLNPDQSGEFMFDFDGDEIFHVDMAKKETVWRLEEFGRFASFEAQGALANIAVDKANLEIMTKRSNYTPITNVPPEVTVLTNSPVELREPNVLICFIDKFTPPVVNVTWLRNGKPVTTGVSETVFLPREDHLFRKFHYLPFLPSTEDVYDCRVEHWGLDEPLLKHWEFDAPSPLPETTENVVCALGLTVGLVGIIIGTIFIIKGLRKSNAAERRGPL
pIC50: −log10 of the molar value. No end group written: not given here.
property: pIC50

Some solved entries appear below for comparison.
DYVLDLQPEATDLHC [Peptide 1543.10] :: < 4.70
DSVDSVNCGVISAAA [Peptide 1601.24] :: < 4.70
QMMLETLNNTEYKNE [Peptide 1601.22] :: < 4.70
DNDVMDDSEIAYKYA [Peptide 90.0069] :: < 4.70

Attention now shifts to the item below.
Exam item: Fill blank: measured pIC50 of the sequence HQVVPSLVASKTKAF [Peptide 90.0023] is ____.
Marked response: < 4.70

---

# binding to HLA-A24 (column 6; no allele head shown for these rows) values compiled below
tested on: HLA-A24; format: binding, human
API doc: respond with a numeric literal and nothing else, no unit.

Some solved entries appear below for comparison.
IMPKTGFLII :: 0.050
KVAELVHFL :: 0.0005
SLQLVFGIDV :: 0.0001
VMIAMEGGHA :: 0

Exam item: Lab note: need binding to HLA-A24 (column 6; no allele head shown for these rows) with HLA-A24 for entry "MLESVIKNYK" , please look it up.
Marked response: 0

Exam item: Lab note: need binding to HLA-A24 (column 6; no allele head shown for these rows) with HLA-A24 for entry "GLVCVQAAT" , please look it up.
Marked response: 0.0001

Exam item: Lab note: need binding to HLA-A24 (column 6; no allele head shown for these rows) with HLA-A24 for entry "KVLEYVIKV" , please look it up.
Marked response: 0

Exam item: Lab note: need binding to HLA-A24 (column 6; no allele head shown for these rows) with HLA-A24 for entry "ILESLFRA" , please look it up.
Marked response: 0.0011

Exam item: Lab note: need binding to HLA-A24 (column 6; no allele head shown for these rows) with HLA-A24 for entry "IMPKTGFLI" , please look it up.
Marked response: 3.2

Exam item: Lab note: need binding to HLA-A24 (column 6; no allele head shown for these rows) with HLA-A24 for entry "ILLWQPIPV" , please look it up.
Marked response: 0

---

molecular target: A*6801 (Homo sapiens, UniProt P04439, A269V/D185E/E176V/E277Q/E87N/F33Y/G231S/I121M/I166T/I218V/L180W/L300P/L318F/N151K/P208A/P217A/Q86R/R169H/T345S); assay: biochemical; type: binding
No end group written: not given here.
# pIC50 values compiled below
Conceptually, pIC50 converts a concentration in mol/L into minus its log10.

TIVYIEYRK [Peptide 9017.0118] :: 7.74

Exam item: Fill blank: measured pIC50 of the sequence VTVYDGVPVWR [Peptide 1525.08] is ____.
Marked response: 7.23

---

biological target: DRB1*0802 (Homo sapiens, UniProt P01903+P01911, A100R/A103L/A169T/F76Y/H45Y/I96F/K41T/L162R/M171V/P40S/Q125H/Q178H/Q39Y/Q99D/R218S/R42G/S66Y/V115G/W38E); assay: biochemical; format: binding
No end group written: not given here.
# pIC50 values compiled below
Conceptually, pIC50 converts a concentration in mol/L into minus its log10.

Some solved entries appear below for comparison.
DWVMAIFGVNPTVAE [Peptide 89.0079] :: 5.17
YFKYFKEDAAKYSKT [Peptide 90.0205] :: 5.22
DRGVLILLLIRFKCG [Peptide 89.0099] :: 5.33
RLTVAKLMSNLLSIP [Peptide 89.0065] :: 6.32
KVAMLDDATHTCWTY [Peptide 90.0105] :: 5.09

Attention now shifts to the item below.
Exam item: Fill blank: measured pIC50 of the sequence IAYYYAQLADSNSNA [Peptide 89.0072] is ____.
Marked response: 5.11

---

# IC50 values compiled below
molecular target: DRB1*1201 (Homo sapiens, UniProt P01903+P01911, A100R/A169T/D57E/D86V/F55L/H45Y/K41T/L162R/M171V/P40S/Q125H/Q178H/Q39Y/Q99D/R42G/S66L/T262R/V114A/V67L/W38E/Y59H/Y61H/Y89S); assay: biochemical; format: binding
No end group written: not given here.
Give just the numeric value; µM need not be written.

FQVIELQMALETLNA [Peptide 90.0025] :: 0.708
AKALQAIELQMMLET [Peptide 89.0171] :: 0.243
DYVLDLQPEATDLHC [Peptide 1543.10] :: 4.88
LNVLKTSNAKAAMLA [Peptide 89.0003] :: 0.531
QRFHNIRGRWTGRCM [Peptide 1543.27] :: 14.6

Exam item: Fill blank: measured IC50 of the sequence LKVLIKQHSLYTHLQ [Peptide 89.0061] is ____.
Marked response: 0.033

---

target: HLA-A1 (A*0101) (Homo sapiens, UniProt P04439, A114D/A174V/A182V/D101N/D185E/E176A/E190D/L180R/Q94H/R68K/S129P/T187R/V100A/V91M/W191G); test: biochemical; format: binding
No end group written: not given here.
property: pIC50
Conceptually, pIC50 converts a concentration in mol/L into minus its log10.

Some solved entries appear below for comparison.
TSDYYIVTY [Peptide 1549.48] :: 7.96
VTRRANGWFY [Peptide 9018.0011] :: 7.60
LSDISEYRHY [Peptide 1549.45] :: 7.57
VWDIVYIEY [Peptide 9018.0040] :: 7.04

Exam item: Fill blank: measured pIC50 of the sequence VTEFRWYRY [Peptide 1549.42] is ____.
Marked response: 7.59

---

target: A31 (A*3101) (Homo sapiens, UniProt P04439, A270S/D185E/E176V/E277Q/F33T/G231S/G80R/H175R/I121M/I218V/I322F/K168Q/L300P/L318F/M331R/P217A/Q94H/R138Q/T323A/T345S/T97I/V358M); test: biochemical; type: binding
pIC50: −log10 of the molar value. No end group written: not given here.
Decide by pIC50: equal to or exceeding 6 means Condition met, less means Condition not met.

Exam item: hey, is pIC50 for this one >= 6? QLVTQLMPK [Peptide 9012.0211]
Marked response: Condition not met

Exam item: hey, is pIC50 for this one >= 6? GTVFGILIKR [Peptide 9012.0243]
Marked response: Condition met

Exam item: hey, is pIC50 for this one >= 6? GVRRATTSTK [Peptide 88.0210]
Marked response: Condition not met

Exam item: hey, is pIC50 for this one >= 6? KMFCQLAR [Peptide 1556.53]
Marked response: Condition met
